Biological target: T1, human Arc C-terminal domain (hArc-CT, residues 206–396, containing both lobes) (human, UniProt Q7LC44 206-396)
T1 sequence: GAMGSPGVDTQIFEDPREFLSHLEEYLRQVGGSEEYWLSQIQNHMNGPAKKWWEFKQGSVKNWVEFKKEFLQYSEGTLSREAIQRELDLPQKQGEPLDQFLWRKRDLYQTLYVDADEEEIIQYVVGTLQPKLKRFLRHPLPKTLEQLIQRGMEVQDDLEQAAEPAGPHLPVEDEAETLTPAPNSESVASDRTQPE
Assay: ITC
property.name: Kd

(Q) Please look at this binder and report its Kd: Ac-TSPKFRSRNESYMRAMST-NH2 [long GKAP repeat 4 peptide]
(A) 391 µM

(Q) Please look at this binder and report its Kd: Ac-TSPKFRSR-NH2 [GKAP repeat 4 peptide]
(A) 763 µM

(Q) Please look at this binder and report its Kd: Ac-RIPSYRYR-NH2 [stargazin peptide pStg(wt)]
(A) 80 µM

(Q) Please look at this binder and report its Kd: Ac-RIPSYRYRYQRRSRSSSRSTE-NH2 [long stargazin peptide pStg(long)]
(A) 26.4 µM
